# System: HeLa Kyoto
# assay_protocol: thermal stability score vs G1/S (z-score of summed log2 fold changes over temperatures); higher = more thermally stable than in G1/S
# condition_info: cell cycle stage: mitosis
Recorded thermal stability score for the following sequences
Please reply with the value in numeric form only.

>  <sequence>
MKGSRIELGDVTPHNIKQLKRLNQVIFPVSYNDKFYKDVLEVGELAKLAYFNDIAVGAVCCRVDHSQNQKRLYIMTLGCLAPYRRLGIGTKMLNHVLNICEKDGTFDNIYLHVQISNESAIDFYRKFGFEIIETKKNYYKRIEPADAHVLQKNLKVPSGQNADVQKTDN [NAA50]

>  <thermal stability score>
-0.495

$$$$

Attention now turns to another entry.
INPUT: Reported thermal stability score for MADGELNVDSLITRLLEVRGCRPGKIVQMTEAEVRGLCIKSREIFLSQPILLELEAPLKICGDIHGQYTDLLRLFEYGGFPPEANYLFLGDYVDRGKQSLETICLLLAYKIKYPENFFLLRGNHECASINRIYGFYDECKRRFNIKLWKTFTDCFNCLPIAAIVDEKIFCCHGGLSPDLQSMEQIRRIMRPTDVPDTGLLCDLLWSDPDKDVQGWGENDRGVSFTFGADVVSKFLNRHDLDLICRAHQVVEDGYEFFAKRQLVTLFSAPNYCGEFDNAGGMMSVDETLMCSFQILKPSEKKAKYQYGGLNSGRPVTPPRTANPPKKR [PPP1CB] : what is it?
OUTPUT: 0.737

###

# System: HeLa Kyoto
# assay_protocol: solubility in G1/S (NP-40 vs SDS abundance) (log2 ratio); higher = more soluble
# condition_info: cell cycle stage: G1/S
// not satisfied strictly below 0.03 in solubility in G1/S (log2); satisfied otherwise

Examples from the recorded data:
>  <sequence>
MDDQGCPRCKTTKYRNPSLKLMVNVCGHTLCESCVDLLFVRGAGNCPECGTPLRKSNFRVQLFEDPTVDKEVEIRKKVLKIYNKREEDFPSLREYNDFLEEVEEIVFNLTNNVDLDNTKKKMEIYQKENKDVIQKNKLKLTREQEELEEALEVERQENEQRRLFIQKEEQLQQILKRKNKQAFLDELESSDLPVALLLAQHKDRSTQLEMQLEKPKPVKPVTFSTGIKMGQHISLAPIHKLEEALYEYQPLQIETYGPHVPELEMLGRLGYLNHVRAASPQDLAGGYTSSLACHRALQDAFSGLFWQPS [MNAT1]

>  <class>
not satisfied

$$$$
>  <sequence>
MAPDPWFSTYDSTCQIAQEIAEKIQQRNQYERKGEKAPKLTVTIRALLQNLKEKIALLKDLLLRAVSTHQITQLEGDRRQNLLDDLVTRERLLLASFKNEGAEPDLIRSSLMSEEAKRGAPNPWLFEEPEETRGLGFDEIRQQQQKIIQEQDAGLDALSSIISRQKQMGQEIGNELDEQNEIIDDLANLVENTDEKLRNETRRVNMVDRKSASCGMIMVILLLLVAIVVVAVWPTN [STX8]

>  <class>
satisfied

$$$$
>  <sequence>
MNPESSIFIEDYLKYFQDQVSRENLLQLLTDDEAWNGFVAAAELPRDEADELRKALNKLASHMVMKDKNRHDKDQQHRQWFLKEFPRLKRELEDHIRKLRALAEEVEQVHRGTTIANVVSNSVGTTSGILTLLGLGLAPFTEGISFVLLDTGMGLGAAAAVAGITCSVVELVNKLRARAQARNLDQSGTNVAKVMKEFVGGNTPNVLTLVDNWYQVTQGIGRNIRAIRRARANPQLGAYAPPPHVIGRISAEGGEQVERVVEGPAQAMSRGTMIVGAATGGILLLLDVVSLAYESKHLLEGAKSESAEELKKRAQELEGKLNFLTKIHEMLQPGQDQ [APOL2]

>  <class>
satisfied

$$$$

INPUT: Form field: solubility in G1/S (log2) at least 0.03? Entry: MATFVSELEAAKKNLSEALGDNVKQYWANLKLWFKQKISKEEFDLEAHRLLTQDNVHSHNDFLLAILTRCQILVSTPDGAGSLPWPGGSAAKPGKPKGKKKLSSVRQKFDHRFQPQNPLSGAQQFVAKDPQDDDDLKLCSHTMMLPTRGQLEGRMIVTAYEHGLDNVTEEAVSAVVYAVENHLKDILTSVVSRRKAYRLRDGHFKYAFGSNVTPQPYLKNSVVAYNNLIESPPAFTAPCAGQNPASHPPPDDAEQQAALLLACSGDTLPASLPPVNMYDLFEALQVHREVIPTHTVYALNIERIITKLWHPNHEELQQDKVHRQRLAAKEGLLLC [TADA1]
OUTPUT: satisfied

INPUT: Form field: solubility in G1/S (log2) at least 0.03? Entry: MSTGGDFGNPLRKFKLVFLGEQSVGKTSLITRFMYDSFDNTYQATIGIDFLSKTMYLEDRTVRLQLWDTAGQERFRSLIPSYIRDSTVAVVVYDITNVNSFQQTTKWIDDVRTERGSDVIIMLVGNKTDLADKRQVSIEEGERKAKELNVMFIETSAKAGYNVKQLFRRVAAALPGMESTQDRSREDMIDIKLEKPQEQPVSEGGCSC [RAB6A]
OUTPUT: not satisfied
